Origin of values: the supplement of paper PMC9170038

Entries annotated with measured apparent KD of MS2 coat protein
# System: MS2 coat protein
# PROTOCOL DETAILS: apparent KD of MS2 coat protein, switch ON state; designed switch direction (-1 OFF switch, 1 ON switch): -1; higher = weaker reporter binding
# PARTICULARS: FMN input: 0 or 200 uM; Eterna round: R93 (includes R88 designs)
Lab book: enter the figure in nM, no units written.

Example sequences with recorded apparent KD of MS2 coat protein:
GAAAAGUCAGGAUAUACAGAAAAAAAAACGAAAAAAAAUCUGUAGAAGGGACAUGAGGAUCACCCAUGUAAAAG [Mat - Exclusion 4 - Mayanna - D123] : 52.6
CUCAUGUCAGGAUAUCAGUAGUAAAAAAAAAAAAUUACUACUGAGAAGGGACAUGAGGAUCACCCAUGUCCCUU [EX4 301: Super Stable 1] : 20.4

Note to self: apparent KD of MS2 coat protein of AAAUGACAUGAGGAUCACCCAUGUCAGGAUAUGACUUGAAAAAAAAAAAAAAAACAUGUCAGAAGGGACAUGGG [Design 50: Sub-opt FB] with MS2 coat protein was 15.7

Note to self: apparent KD of MS2 coat protein of AAAAAACAUGAGGAUCACCCAUGUAAGGAUAUGCAAAAUAAAAGAAAUAAAAAGAAAAGCAGAAGGUACAUUAA [JL wbt mod 9] with MS2 coat protein was 23.6

Note to self: apparent KD of MS2 coat protein of AAAAAUGGAGGAUAUACAUGAGGAUCACCCAUGUGUAAAAAAAAUUACACAAAAGAAAGUAGAAGGCCAUAAAA [Ex 3 Warm] with MS2 coat protein was 59.7
